test system: SF-268 CNS; assay: NCI-60 one-dose screen, 48 h; conditions: 10 µM unless noted
The panel holds about 83,000 compounds, 20% with a hit somewhere; the sample as a whole holds those more often. Activity calls are given as the source filed them. Rule for the calls: active = growth percent below 10; inactive = the rest.
Log the outcome using a class from active, inactive

## Input Hey, what did the test say about COC[C@@H](C)n1c(C2CCOCC2)nc2c1C1C=C(OC)C(c3c(C)noc3C)=CC1N=C2 (some centres not stated) ?
## Output inactive

## Input // return assay outcome for CC(=Nc1ccccc1)C1=C(O)C(Cc2ccccc2)NC1=O (configuration not stated)
## Output inactive

## Input Kindly provide the recorded test outcome for the following compound: COc1cc(NC2CCC(=O)N2c2ccc(Cl)cc2Cl)cc(OC)c1OC (configuration not stated)
## Output inactive

## Input Check the results log: what was the call for CCS(=O)(=O)N1CCN(c2ccc(Nc3ncc(C(N)=O)c(NC4CC4)n3)cc2)CC1 ?
## Output inactive

## Input // param item: Cc1nc(NC(=O)N2CCC[C@H]2C(N)=O)sc1-c1ccnc(C(C)(C)C(F)(F)F)c1 ; yields the recorded call
## Output inactive

## Input Fill in: this test's call for Cn1ncc(Cl)c1-c1cc(C(=O)N[C@H](CN)Cc2ccc(F)c(F)c2)oc1Cl is ___
## Output inactive

## Input Please state the recorded outcome for this compound: CC(=O)CC1CCCC1c1ccc2ccccc2c1 (configuration not stated)
## Output inactive

## Input State the result this test recorded for COc1cc(-c2nc(C(=O)NCC(=O)O)nn2-c2ccc(Cl)cc2)cc(OC)c1OC .
## Output inactive

## Input Hi team, can someone confirm the assay call for COc1cc2c(c(OC)c1)C1c3ccccc3NC(=O)N1CC2 (configuration not stated) ?
## Output inactive
